study system: Rap guanine nucleotide exchange factor 3 (Homo sapiens) (UniProt O95398)
Sequence (O95398 whole entry, looked up): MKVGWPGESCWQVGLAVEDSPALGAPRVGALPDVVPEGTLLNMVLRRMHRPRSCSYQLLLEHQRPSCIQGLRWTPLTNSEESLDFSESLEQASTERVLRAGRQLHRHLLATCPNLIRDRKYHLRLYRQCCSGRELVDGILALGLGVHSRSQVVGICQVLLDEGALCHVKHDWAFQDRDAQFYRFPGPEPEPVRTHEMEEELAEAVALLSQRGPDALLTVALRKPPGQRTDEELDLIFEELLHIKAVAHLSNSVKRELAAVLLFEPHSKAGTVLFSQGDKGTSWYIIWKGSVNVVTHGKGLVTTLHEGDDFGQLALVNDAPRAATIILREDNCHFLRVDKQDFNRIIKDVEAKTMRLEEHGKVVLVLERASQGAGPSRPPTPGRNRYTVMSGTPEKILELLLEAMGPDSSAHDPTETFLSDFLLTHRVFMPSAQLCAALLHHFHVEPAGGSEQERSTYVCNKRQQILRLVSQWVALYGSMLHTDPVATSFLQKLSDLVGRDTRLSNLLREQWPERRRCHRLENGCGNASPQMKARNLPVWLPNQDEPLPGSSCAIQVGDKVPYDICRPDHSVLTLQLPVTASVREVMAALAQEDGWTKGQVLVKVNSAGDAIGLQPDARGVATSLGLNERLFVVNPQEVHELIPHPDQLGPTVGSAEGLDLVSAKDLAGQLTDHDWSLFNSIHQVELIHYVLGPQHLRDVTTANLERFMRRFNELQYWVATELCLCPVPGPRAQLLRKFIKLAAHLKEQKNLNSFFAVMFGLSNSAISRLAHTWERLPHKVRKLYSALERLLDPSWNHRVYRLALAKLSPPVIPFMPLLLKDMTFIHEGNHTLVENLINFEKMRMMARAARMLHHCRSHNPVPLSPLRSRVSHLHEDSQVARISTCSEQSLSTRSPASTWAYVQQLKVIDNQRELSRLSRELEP
test summary: Confirmatory qHTS for antagonist of cAMP-regulated guanine nucleotide exchange factor 3 (EPAC1) (AID 1645880); note: nearly all actives have a fitted effect of over 55% in size
test settings: EPAC1 Rap1B-BODIPY-GDP exchange, fluorescence; series mostly up to 115 µM
Results filed as inconclusive are left out. The source made the active and inactive calls. Calls come from the whole dose curve; as a rule, active = well fitted inhibition curve with a large enough effect; inconclusive = small, poorly fitted or top-dose-only effect; inactive = no such curve, though single readings can be large or run the other way.
Please state which outcome applies, choosing from active, inactive

>  <compound>
CCN1C(=O)C(=C/C=C/c2ccco2)C(=O)N(CC)C1=S

>  <classification>
inactive

$$$$

Ask: Any idea what this test logged for O=[N+]([O-])c1ccc(N2CCCCCC2)c2nonc12 ?
Reply: inactive

Ask: # fetch the recorded call for O=C1NC(=O)N(c2cccc(Cl)c2)C(=O)/C1=C\c1ccc(Sc2nc3ccccc3[nH]2)o1 here
Reply: active

Ask: Each compound tested received a call. Report the one for COCCCn1c(N)c(C(=O)NCCC(C)C)c2nc3ccccc3nc21 .
Reply: active

---

test summary: Primary qHTS for Huh7 cytotoxicity: counterscreen for inhibitors of MERS-S pseudotyped particle cell entry (AID 1479147)
test settings: cell viability read-out; series mostly up to 57.1 µM
Records with an inconclusive call do not appear. The source made the active and inactive calls. The call rests on the fitted dose curve.
Return exactly one item of active, inactive

Illustrative cases are given below, each with its answer.
>  <compound>
CCN1CCC(=C2c3ccccc3CCc3ccccc32)C1C (stereo not drawn)

>  <classification>
inactive

$$$$
>  <compound>
Fc1cccc(Br)c1NC1=NCCN1

>  <classification>
inactive

$$$$
>  <compound>
CC1CCC(C(C)C)C(OC(=O)c2ccccc2O)C1 (stereo not drawn)

>  <classification>
inactive

$$$$
>  <compound>
OB1OCc2cc(F)ccc21

>  <classification>
inactive

$$$$
>  <compound>
CS(=O)(=O)n1cc2c(n1)CN([C@H]1CO[C@H](c3cc(F)ccc3F)[C@@H](N)C1)C2

>  <classification>
inactive

$$$$
>  <compound>
COc1c(-c2ccc3cc(NS(C)(=O)=O)ccc3c2)cc(-n2ccc(=O)[nH]c2=O)cc1C(C)(C)C

>  <classification>
inactive

$$$$

Ask: Answer briefly: the call reported for COc1ccc(C=CC(=O)O)cc1 in this assay.
Reply: inactive

Ask: Outcome logged for CC(COc1ccc(Oc2ccccc2)cc1)Oc1ccccn1 (stereo not drawn) in this assay:
Reply: inactive

Ask: State the result this test recorded for CO[C@H]1C[C@@H]2CC[C@@H](C)[C@@](O)(O2)C(=O)C(=O)N2CCCC[C@H]2C(=O)O[C@H]([C@H](C)C[C@@H]2CC[C@@H](OCCO)[C@H](OC)C2)CC(=O)[C@H](C)/C=C(/C)[C@@H](O)[C@@H](OC)C(=O)[C@H](C)C[C@H](C)\C=C/C=C\C=C/1C .
Reply: inactive

Ask: # outcome recorded in this test, key = CC[C@H]1OC(=O)C[C@@H](OC(C)=O)[C@H](C)[C@@H](O[C@@H]2O[C@H](C)[C@@H](O[C@H]3C[C@@](C)(O)[C@@H](OC(=O)CC(C)C)[C@H](C)O3)[C@H](N(C)C)[C@H]2O)[C@@H](CC=O)C[C@@H](C)C(=O)/C=C/C(C)=C/[C@@H]1CO[C@@H]1O[C@H](C)[C@@H](O)[C@@H](OC)[C@H]1OC
Reply: inactive

Ask: Status in this test for CN[C@@H]1[C@@H](O[C@H]2O[C@H](CO)[C@@H](N)[C@H](O)[C@H]2O)O[C@H]2C[C@@H](N)[C@H](O[C@H]3[C@H](O)[C@@H](O)[C@H](N)C[C@@H]3N)O[C@@H]2[C@@H]1O ?
Reply: inactive

Ask: I would be grateful if you could indicate the recorded call for CC(C)C[C@H]1C(=O)O[C@H](Cc2ccc(N3CCOCC3)cc2)C(=O)N(C)[C@@H](CC(C)C)C(=O)O[C@H](C)C(=O)N(C)[C@@H](CC(C)C)C(=O)O[C@H](Cc2ccc(N3CCOCC3)cc2)C(=O)N(C)[C@@H](CC(C)C)C(=O)O[C@H](C)C(=O)N1C .
Reply: inactive

Ask: Please let me know the test result on file for CCCCC/C=C\C/C=C\C/C=C\CCCCC(=O)O .
Reply: inactive

Ask: Please state the recorded outcome for this compound: CCCC(=O)O[C@]1(C(=O)COC(C)=O)CC[C@H]2C3C[C@H](F)C4=CC(=O)C=C[C@]4(C)[C@@]3(F)[C@@H](O)C[C@@]21C (stereo partly drawn)
Reply: inactive

Ask: // param item: C#C[C@]1(O)CCC2C3CCC4=C(CCC(=O)C4)C3CC[C@@]21C (stereo partly drawn) ; yields the recorded call
Reply: inactive

Ask: Hi team, can someone confirm the assay call for S=C1SCN(Cc2ccccc2)CN1Cc1ccccc1 ?
Reply: active

Ask: How was NCCS[As](SCCN)c1ccc(Nc2nc(N)nc(N)n2)cc1 classified in this test?
Reply: inactive

Ask: Please let me know the test result on file for C[C@H]1[C@H](OC(=O)CCC(=O)O)O[C@@H]2O[C@@]3(C)CC[C@H]4[C@H](C)CC[C@@H]1[C@@]24OO3 .
Reply: inactive

Ask: Please let me know the test result on file for FC(F)(F)C(F)(F)C(F)(F)C(F)(F)C(F)(F)C(F)(F)F .
Reply: inactive

Ask: # lookup: test call for C/C=C/C=C/C(=O)O
Reply: inactive

Ask: Per the records of this test, what outcome belongs to CC(C)[C@@H](C)/C=C/[C@@H](C)[C@H]1CC[C@H]2/C(=C/C=C3\C[C@@H](O)CC[C@@H]3C)CCC[C@]12C ?
Reply: inactive

Ask: State the result this test recorded for O=C1N=C(N2CCOCC2)CN1c1ccc(Cl)cc1 .
Reply: inactive

Ask: So what was the verdict on Oc1c(Br)cc(Br)cc1CNC1CCC(O)CC1 (stereo not drawn) in this test?
Reply: inactive

Ask: Assay result, entry O=[N+]([O-])c1ccc(Oc2ccc(N=C=S)cc2)cc1 — outcome?
Reply: inactive

Ask: Lab log entry: CC(OC(=O)OC1CCCCC1)OC(=O)C1=C(CSc2nnnn2CCN(C)C)CS[C@@H]2[C@H](NC(=O)Cc3csc(N)n3)C(=O)N12 (stereo partly drawn) — outcome as called in the assay?
Reply: inactive

Origin of measurements: PubChem BioAssay (NCATS)
